# STUDY TARGET: T1, E. coli rhomboid protease GlpG (E. coli, UniProt P09391 1-276, limits assumed)
# T1 sequence (looked up): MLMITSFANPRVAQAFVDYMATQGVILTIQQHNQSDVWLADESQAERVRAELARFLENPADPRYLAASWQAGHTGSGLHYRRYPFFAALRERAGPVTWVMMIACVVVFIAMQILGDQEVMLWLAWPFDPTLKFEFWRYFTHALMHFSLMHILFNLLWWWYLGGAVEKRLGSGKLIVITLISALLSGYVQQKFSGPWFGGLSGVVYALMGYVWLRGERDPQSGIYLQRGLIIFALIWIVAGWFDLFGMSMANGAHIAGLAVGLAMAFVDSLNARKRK
# PROTOCOL TEXT: cell-based or functional assay
No end group written: not given here.
Strictly below 1 µM in IC50 (µM), measured in vitro as described (Ticha et al., 2017): YES. Otherwise: NO.

## Task Strictly below 1 µM: is that where IC50 (µM), measured in vitro as described (Ticha et al., 2017) of Ac-RVRHA-{keto‑C(:O)NH-ethoxycarbonylmethyl} [Compound 6] sits?
## Result NO

## Task Strictly below 1 µM: is that where IC50 (µM), measured in vitro as described (Ticha et al., 2017) of Ac-RVRHA-{keto‑C(:O)NH-1‑phenylethyl} [Compound 5] sits?
## Result NO

## Task Strictly below 1 µM: is that where IC50 (µM), measured in vitro as described (Ticha et al., 2017) of Ac-RVRHA-{keto‑C(:O)NH-isopropyl} [Compound 2] sits?
## Result NO

## Task Strictly below 1 µM: is that where IC50 (µM), measured in vitro as described (Ticha et al., 2017) of Ac-RVRHA (not fully specified (C-terminus)) [Compound 3] sits?
## Result NO

## Task Strictly below 1 µM: is that where IC50 (µM), measured in vitro as described (Ticha et al., 2017) of Ac-RVWHA-{keto‑C(:O)NH-4‑phenylbutyl} [Compound 16] sits?
## Result YES

## Task Strictly below 1 µM: is that where IC50 (µM), measured in vitro as described (Ticha et al., 2017) of Ac-RVRHA (also: C-terminal Ala as alpha-ketoamide, -CO-CO-NH-(CH2)4-Ph, Structure is printed only as a drawing; Tail inferred from C39H62N14O7, MW 839.02; also called Cpd No. 11) [Compound 11] sits?
## Result YES

## Task Strictly below 1 µM: is that where IC50 (µM), measured in vitro as described (Ticha et al., 2017) of Ac-His-Ala (not fully specified (C-terminus)) [Compound 14] sits?
## Result NO

## Task Strictly below 1 µM: is that where IC50 (µM), measured in vitro as described (Ticha et al., 2017) of Ac-RVRHA (also: C-terminal Ala as alpha-ketoamide, -CO-CO-NH-(CH2)2-Ph, Structure is printed only as a drawing; Tail inferred from monoisotopic mass 810.461290, MW 810.96, and the NMR; It has the same mass as compound 5; also called Cpd No. 9) [Compound 9] sits?
## Result YES

## Task Strictly below 1 µM: is that where IC50 (µM), measured in vitro as described (Ticha et al., 2017) of Ac-RVRHA-{keto‑C(:O)NH2} [Compound 1] sits?
## Result NO

## Task Strictly below 1 µM: is that where IC50 (µM), measured in vitro as described (Ticha et al., 2017) of Ac-RVRHA (also: C-terminal Ala as alpha-ketoamide, -CO-CO-NH-CH2-(2,5-dimethylphenyl), Structure is printed only as a drawing; Tail inferred from C38H60N14O7, MW 824.99; also called Cpd No. 10) [Compound 10] sits?
## Result YES

## Task Strictly below 1 µM: is that where IC50 (µM), measured in vitro as described (Ticha et al., 2017) of Ac-RVRHA-{keto‑C(:O)NH-benzyl} [Compound 4] sits?
## Result NO

## Task Strictly below 1 µM: is that where IC50 (µM), measured in vitro as described (Ticha et al., 2017) of Ac-RVRHA-{keto‑C(:O)NH-pentyl} [Compound 8] sits?
## Result NO

## Task Strictly below 1 µM: is that where IC50 (µM), measured in vitro as described (Ticha et al., 2017) of Ac-Arg-His-Ala (not fully specified (C-terminus)) [Compound 13] sits?
## Result NO

## Task Strictly below 1 µM: is that where IC50 (µM), measured in vitro as described (Ticha et al., 2017) of Ac-RVRHA-{keto‑C(:O)NH-neopentyl} [Compound 7] sits?
## Result NO
